assay: fission yeast growth modulation, primary screen, strain 972, OD600, 24 h, no modulator (AID 1090);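 also: basal condition with compound alone and no growth modifier present; test concentration not given here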; details: S. pombe 972 growth, higher = more signal, called active from +8 up or from −8 down

- compound: "O=C1C[C@@H](O)[C@@H](O)[C@@H]2[C@@H]3C(=O)N(c4cccc(Oc5ccccc5)c4)C(=O)[C@@H]3CC[C@@H]12"
  z-score: -0.444
- compound: "CCOC(=O)[C@H](Cc1ccccc1)NC(=O)CCC1CC(OC(=O)NCc2ccc3c(c2)OCO3)CC2(CCCC(COC(=O)NCC3CCCCC3)O2)O1 (stereo partly drawn)"
  z-score: 0.455
- compound: "CC(=O)O[C@H]1C2=C(C(=O)[C@@H]3O[C@@H]31)[C@H]1C(C)O[C@@H]2[C@@]23C(=O)[C@@H]4O[C@@H]4[C@@H](O)C2=CO[C@H](C)[C@@H]13 (stereo partly drawn)"
  z-score: -0.361

====

test system: Wnt5a (protein binding on small-molecule microarray); experiment: Wnt5a binders on small-molecule microarray, primary screen, biophysical, 635/667 nm fluorescence (AID 1142); conditions: 635 nm fluorescence, higher = more signal;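 also: fluorescence read at 667 nm with signal to noise per printed feature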

- compound: "O=C1c2ccccc2[C@@]2(Cc3ccccc3N(C3CC3)C2=O)[C@H](c2ccc(CO)cc2)N1Cc1ccccc1C(F)(F)F"
  composite z-score: -0.145
- compound: "CCCNC(=O)OC[C@H]1O[C@H](CCON=C2[C@H]3CCn4c(=O)n(-c5ccccc5)c(=O)n4[C@H]3[C@H](O)[C@@H]3O[C@H]23)C=C[C@@H]1Oc1ccc(OC)cc1"
  composite z-score: 0.14
- compound: "CCCCc1nc2c(c3c1C[C@H](C)OC3)CN(CCC(C)C)CC2"
  composite z-score: 0.122
- compound: "COc1ccc(O[C@H]2C=C[C@@H](c3ccccc3)O[C@@H]2COC(=O)CCC(C)=NOCC[C@@H]2C=C[C@H](OC(C)=O)[C@@H](COC(C)=O)O2)cc1"
  composite z-score: -0.0096
- compound: "CO[C@@H]1COC(=O)[C@H](C)NC(=O)[C@@H](C)COC(=O)CCC[C@H]1C"
  composite z-score: -0.0361
- compound: "CCOC(=O)[C@H](Cc1ccccc1)NC(=O)CCC1CC(OC(=O)NCc2ccc3c(c2)OCO3)CC2(CCCC(COC(=O)NCC(c3ccccc3)c3ccccc3)O2)O1 (some centres undefined)"
  composite z-score: -0.169
- compound: "C=CCNC(=O)[C@H]1[C@@H]2C(=O)O[C@@H](c3ccccc3)[C@@H](c3ccccc3)N2[C@@H](c2ccc(O)cc2)[C@]12C(=O)N(C(=O)OCCOC)c1ccc(C#CC3=CCCCC3)cc12"
  composite z-score: 0.411
- compound: "CC(CCC(=O)OC[C@H]1O[C@H](C#Cc2ccccc2)C=C[C@@H]1Oc1ccc(C)cc1)=NOC[C@@H](O)COCc1ccco1"
  composite z-score: -1.52
- compound: "COC(=O)[C@@H]1N=C(c2ccc(OCCCO)cc2)O[C@@H]1c1ccccc1N=[N+]=[N-]"
  composite z-score: 0.122
- compound: "COc1ccc(OC[C@H]2Cc3c(-c4ccccc4)nc4c(c3CO2)CN(CCOc2ccccc2)CC4)cc1"
  composite z-score: 0.133
- compound: "CCN1C(=O)[C@H]2[C@H]3[C@H](O)[C@H](O)CC(=NOC(C)CN4CCCCc5nc(C)c(C)cc54)[C@@H]3CC[C@H]2C1=O (some centres undefined)"
  composite z-score: 0.185
- compound: "CCCC[C@@H](O)C1=C(C)C[C@H]2C(=O)N(Cc3ccccc3)C(=O)[C@H]2[C@H]1CO"
  composite z-score: -0.0299
- compound: "C=C(CCCC)C(=O)CC[C@@H](OC(C)=O)c1cccc(OCCO)c1"
  composite z-score: 0.0837
- compound: "CC=CC1=C(CO)[C@H](O)[C@H]2O[C@H]2[C@H]1O"
  composite z-score: 0.261
- compound: "C[N+](C)(C)CCCCCCNC(=O)[C@@H]1C[C@@H]2C(=O)N3CCC[C@H]3C(=O)N2[C@@H]1c1cccc(OCCO)c1"
  composite z-score: -0.0544
- compound: "COc1ccc(O[C@H]2C=C[C@@H](c3ccccc3)O[C@@H]2COC(=O)N2CCCCC2)cc1"
  composite z-score: -0.19
- compound: "COC(=O)[C@@]1(Cc2ccccc2)[C@H]2c3cc(C(=O)N4CCCC4)n(Cc4ccccn4)c3C[C@H]2CN1C(=O)c1ccccc1"
  composite z-score: 1.25
- compound: "CC(C)=CCCC(C)=CCON=C1[C@H]2CCn3c(=O)n(Cc4cc5c(cc4Cl)OCO5)c(=O)n3[C@H]2[C@H](O)[C@@H]2O[C@H]12"
  composite z-score: 0.0888
- compound: "CC(=O)OC[C@H]1O[C@H](C#CCCCc2ccccc2)C=C[C@@H]1OC(C)=O"
  composite z-score: 0.18
- compound: "CC(=O)C[C@H](O)[C@@H](NC(=O)OC(C)(C)C)C(C)C"
  composite z-score: -0.388
- compound: "CCOC(=O)NN=C1C[C@@H](O)[C@@H](O)[C@@H]2[C@@H]3C(=O)N(C4CCCCC4)C(=O)[C@@H]3CC[C@@H]12"
  composite z-score: 0.133
- compound: "CS(=O)(=O)CCOC(=O)C1=CC(CCCO)=CC(c2cccs2)N(Cc2cccc(OC(F)(F)F)c2)C=C1C(=O)OCCS(C)(=O)=O (centres undefined)"
  composite z-score: 0.141
- compound: "CCOC(=O)CCN1C(=O)[C@H]2[C@H]3[C@H](O)[C@H](O)CC(=NOC[C@@H](O)COCc4ccco4)[C@H]3CC[C@H]2C1=O"
  composite z-score: -0.0068
- compound: "C=CCOC(=O)[C@H]1[C@@H]2C(=O)O[C@@H](c3ccccc3)[C@@H](c3ccccc3)N2[C@@H](c2ccc(OCCOC(=O)[C@H]3C[C@H]4C(=O)N[C@@H](Cc5ccccc5)C(=O)N4[C@H]3c3ccc(O)cc3)cc2)[C@]12C(=O)Nc1ccccc12"
  composite z-score: 0.354
- compound: "CO[C@H]1COC(=O)[C@H](C)NC(=O)[C@@H](C)COC(=O)CC=C[C@@H]1C"
  composite z-score: -0.185
- compound: "CC(C)(C)N1C(=O)[C@H]2[C@H]3[C@H](O)[C@H](O)CC(=NO[C@@H]4O[C@H](CO)[C@@H](O)[C@H](O)[C@H]4O)[C@@H]3CC[C@H]2C1=O"
  composite z-score: 0.324
- compound: "CCCCCN1CC=CC23O[C@@H]4C=CCOC(=O)[C@@H]4[C@H]2C(=O)N(CCCCCCO)[C@@H]3C1=O (some centres undefined)"
  composite z-score: -0.485
- compound: "CCOC(=O)C1=CCC(c2cc3ccccc3[nH]2)NC1 (centres undefined)"
  composite z-score: 0.109
- compound: "CCOC(=O)[C@H](Cc1ccccc1)NC(=O)CCC1CC(OC(=O)NCc2ccc3c(c2)OCO3)CC2(CCCC(COC(=O)NCc3cccc(C(F)(F)F)c3)O2)O1 (some centres undefined)"
  composite z-score: -0.0271
